EXPERIMENTAL_TARGET: F508delCFTR (Homo sapiens, UniProt P13569, DEL508-508)
Construct: expressed in transfected cells; host or cells: CFBE41o- human lung-derived epithelial cells (CFBE4lo-F508delCFTR-HRP), doxycycline-inducible
Sequence (P13569 with tags, fused parts or gaps DEL508-508): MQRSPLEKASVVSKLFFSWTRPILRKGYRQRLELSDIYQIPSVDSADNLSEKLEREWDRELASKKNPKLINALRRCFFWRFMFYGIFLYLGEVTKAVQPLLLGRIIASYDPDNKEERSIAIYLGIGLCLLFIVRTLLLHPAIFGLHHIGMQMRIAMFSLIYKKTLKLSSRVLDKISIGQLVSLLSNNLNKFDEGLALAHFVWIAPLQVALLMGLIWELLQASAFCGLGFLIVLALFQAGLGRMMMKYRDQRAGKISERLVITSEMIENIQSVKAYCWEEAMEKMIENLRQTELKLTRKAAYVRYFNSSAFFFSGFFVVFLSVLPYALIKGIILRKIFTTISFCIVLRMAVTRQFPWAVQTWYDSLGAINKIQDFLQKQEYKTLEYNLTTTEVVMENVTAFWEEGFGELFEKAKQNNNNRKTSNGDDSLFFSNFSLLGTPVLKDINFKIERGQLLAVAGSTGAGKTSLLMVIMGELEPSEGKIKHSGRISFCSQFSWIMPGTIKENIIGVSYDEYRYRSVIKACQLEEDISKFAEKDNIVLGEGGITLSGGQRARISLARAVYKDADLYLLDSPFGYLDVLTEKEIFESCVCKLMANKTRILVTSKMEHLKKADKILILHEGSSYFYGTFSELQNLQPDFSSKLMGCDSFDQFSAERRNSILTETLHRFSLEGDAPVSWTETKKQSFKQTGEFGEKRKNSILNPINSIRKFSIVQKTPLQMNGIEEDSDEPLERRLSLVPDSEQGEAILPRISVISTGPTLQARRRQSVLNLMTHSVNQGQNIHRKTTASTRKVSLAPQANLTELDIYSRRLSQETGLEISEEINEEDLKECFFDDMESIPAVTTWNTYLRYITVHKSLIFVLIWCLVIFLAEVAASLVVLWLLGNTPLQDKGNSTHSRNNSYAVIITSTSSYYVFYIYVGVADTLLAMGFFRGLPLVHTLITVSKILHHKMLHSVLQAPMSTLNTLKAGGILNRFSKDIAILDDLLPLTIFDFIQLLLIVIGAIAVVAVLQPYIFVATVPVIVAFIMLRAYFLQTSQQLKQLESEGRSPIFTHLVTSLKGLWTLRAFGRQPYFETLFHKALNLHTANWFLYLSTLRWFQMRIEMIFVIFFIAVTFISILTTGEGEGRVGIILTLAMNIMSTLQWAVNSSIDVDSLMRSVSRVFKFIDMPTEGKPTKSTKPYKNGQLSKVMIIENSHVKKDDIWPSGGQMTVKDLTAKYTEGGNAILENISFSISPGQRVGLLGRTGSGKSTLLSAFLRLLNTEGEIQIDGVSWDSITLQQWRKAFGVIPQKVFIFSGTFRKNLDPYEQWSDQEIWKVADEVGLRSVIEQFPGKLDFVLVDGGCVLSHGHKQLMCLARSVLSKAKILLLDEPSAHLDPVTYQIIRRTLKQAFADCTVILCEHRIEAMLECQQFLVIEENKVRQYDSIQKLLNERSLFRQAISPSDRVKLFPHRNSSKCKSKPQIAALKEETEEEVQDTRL
PROTOCOL_TEXT: Cell Surface Expression-Horse Radish Peroxidase (CSE-HRP) Assay;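 also: co-corrector and positive control are both the same reference corrector at 2 µM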
Type: cell-based
EXPERIMENTAL_SETUP: CSE-HRP; with co-corrector (2 μM); maximum at any tested concentration, normalized to on-plate positive control
PARAMETER_MEASURED: Maximum % activity (with co-corrector)

COMPOUND	ENDPOINT_RESULT
CCn1c(C)c(CC(=O)N2[C@H](C(=O)O)[C@@H](C(C)(C)C)[C@H](NCc3cc(C(C)(C)C)ccc3OC)[C@@H]2c2ccccc2)c2ccccc21 [II-172]	+++ (≥350)
COc1ccc(C(C)(C)C)cc1CN[C@H]1[C@H](C(C)(C)C)[C@@H](C(=O)O)N(C(=O)c2cnn(-c3ccccc3C)c2C)[C@H]1c1ccccc1 [II-228]	+++ (≥350)
COc1ccc(C(C)(C)C)cc1CN[C@H]1[C@H](C(C)(C)C)[C@@H](C(=O)O)N(C(=O)C2CC(C)CCO2)[C@H]1c1ccccc1 (stereo partly drawn) [II-174]	+++ (≥350)

Source listed as patent US20180099931A1.
